# assay_target: hTLR7 (Homo sapiens)
# Construct: host or cells: HEK-Blue hTLR7 (HEK293-derived reporter cells with SEAP read-out)
# Sequence (Q9NYK1 27-1049): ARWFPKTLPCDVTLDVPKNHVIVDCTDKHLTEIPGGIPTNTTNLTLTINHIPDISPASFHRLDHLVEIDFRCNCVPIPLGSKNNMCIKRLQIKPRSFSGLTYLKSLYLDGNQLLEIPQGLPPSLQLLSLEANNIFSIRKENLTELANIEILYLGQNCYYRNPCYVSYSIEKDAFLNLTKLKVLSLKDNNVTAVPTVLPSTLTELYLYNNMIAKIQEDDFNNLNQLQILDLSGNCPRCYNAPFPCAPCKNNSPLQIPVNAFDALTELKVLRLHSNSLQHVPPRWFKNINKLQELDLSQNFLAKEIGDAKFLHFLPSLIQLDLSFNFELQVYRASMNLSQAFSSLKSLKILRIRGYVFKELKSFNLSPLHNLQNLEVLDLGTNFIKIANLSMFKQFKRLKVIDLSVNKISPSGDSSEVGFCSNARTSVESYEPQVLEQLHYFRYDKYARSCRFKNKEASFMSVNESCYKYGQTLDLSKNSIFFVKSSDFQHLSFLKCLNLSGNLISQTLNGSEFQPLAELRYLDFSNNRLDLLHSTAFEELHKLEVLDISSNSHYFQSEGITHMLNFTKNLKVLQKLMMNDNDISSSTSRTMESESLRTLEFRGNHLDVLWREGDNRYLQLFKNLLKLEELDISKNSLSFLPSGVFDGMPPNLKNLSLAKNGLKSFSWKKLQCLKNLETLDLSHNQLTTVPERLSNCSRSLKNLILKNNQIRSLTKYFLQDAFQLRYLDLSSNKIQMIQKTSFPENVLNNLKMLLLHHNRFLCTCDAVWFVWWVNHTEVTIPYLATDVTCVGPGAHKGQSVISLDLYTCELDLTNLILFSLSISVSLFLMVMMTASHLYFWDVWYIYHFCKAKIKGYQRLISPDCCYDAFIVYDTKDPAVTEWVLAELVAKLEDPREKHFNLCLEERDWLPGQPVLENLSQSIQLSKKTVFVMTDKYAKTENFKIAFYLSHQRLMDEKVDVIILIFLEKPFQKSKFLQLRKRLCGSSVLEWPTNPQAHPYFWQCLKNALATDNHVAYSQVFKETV
# experimental_details: EC50 assay for small molecule agonists, HEK-Blue hTLR7 cells, SEAP readout
# Type: cell-based
# condition_summary: agonist activity
measured_parameter: EC50

> print(dat)
                                   compound  measured.parameter  experimental.value
1  CCCN(CCC)C(=O)C1=Cc2ccc(-c3ccc(C(=O)N4CCCC4)cc3)cc2N=C(N)C1 [VTX2337, reference compound]                EC50              > 3 µM

###

# assay_target: hTLR8 (Homo sapiens)
# Construct: host or cells: HEK-Blue hTLR8 (HEK293-derived reporter cells with SEAP read-out)
# Sequence (Q9NR97 27-1041): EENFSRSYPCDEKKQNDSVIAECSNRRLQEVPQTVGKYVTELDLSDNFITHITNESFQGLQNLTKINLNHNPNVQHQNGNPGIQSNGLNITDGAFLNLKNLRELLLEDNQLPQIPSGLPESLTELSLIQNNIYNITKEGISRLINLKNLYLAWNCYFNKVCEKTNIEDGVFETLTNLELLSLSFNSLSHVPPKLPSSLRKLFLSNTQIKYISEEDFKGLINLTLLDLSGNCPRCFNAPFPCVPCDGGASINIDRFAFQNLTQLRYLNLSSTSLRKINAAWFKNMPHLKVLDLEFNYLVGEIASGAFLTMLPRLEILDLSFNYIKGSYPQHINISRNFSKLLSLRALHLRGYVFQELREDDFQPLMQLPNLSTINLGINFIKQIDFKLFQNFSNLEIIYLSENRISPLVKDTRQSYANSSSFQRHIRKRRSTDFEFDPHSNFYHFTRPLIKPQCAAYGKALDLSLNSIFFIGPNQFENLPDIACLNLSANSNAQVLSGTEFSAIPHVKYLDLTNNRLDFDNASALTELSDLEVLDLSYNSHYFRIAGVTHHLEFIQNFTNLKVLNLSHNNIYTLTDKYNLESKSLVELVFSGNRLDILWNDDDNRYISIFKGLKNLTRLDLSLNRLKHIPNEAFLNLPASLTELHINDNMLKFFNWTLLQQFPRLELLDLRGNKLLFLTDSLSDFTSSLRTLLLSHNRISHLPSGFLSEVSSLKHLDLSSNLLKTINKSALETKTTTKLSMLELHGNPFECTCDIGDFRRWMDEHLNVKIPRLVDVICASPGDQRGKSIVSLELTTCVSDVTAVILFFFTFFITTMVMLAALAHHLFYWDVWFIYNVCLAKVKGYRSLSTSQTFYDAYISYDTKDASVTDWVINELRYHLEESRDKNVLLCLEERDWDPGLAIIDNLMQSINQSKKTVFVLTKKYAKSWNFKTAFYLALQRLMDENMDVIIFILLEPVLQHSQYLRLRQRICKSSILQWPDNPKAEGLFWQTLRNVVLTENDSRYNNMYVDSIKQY
# experimental_details: EC50 assay for small molecule agonists, HEK-Blue hTLR8 cells, SEAP readout
# Format: cell-based
# condition_summary: agonist activity, read-out: hTLR8(EC50)
Parameter EC50: see the listing below.
measured_parameter: EC50

> print(dat)
                                   molecule  measured.parameter  experimental.value
1  CCCCCc1cc(Cc2ccc(C(=O)N(C)C)cc2)c(C)nc1N [Compound N38]                EC50              > 4 µM
2  CCCCCc1cc(Cc2ccc(C(=O)N3CCOCC3)cc2)c(C)nc1N [Compound N40]                EC50              > 4 µM
3  COCCCc1cc(Cc2ccc(CN3CCN(C)CC3)cc2)c(C)nc1N [Compound N30]                EC50              > 4 µM
